B1: MLL5 (parent)
chain: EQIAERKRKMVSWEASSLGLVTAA

variants of: B1; assay: protein stability index of a GFP-peptide fusion (GPS, HEK-293T) (PSI 1-6); higher = more stable; conditions: c terminus: a fixed tail appended;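 further: lentivirally expressed fusions sorted by FACS into six bins by GFP to DsRed ratio, PSI derived from sequencing read proportions per bin multiplied by bin number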
observable: protein stability index
Give bare numbers.

Answered cases to consult:
entry_sequence="EQIAERKRKMVSWEASSMGLVTAA [L18M]" reported_value=3.16
entry_sequence="EQIAERKRKMVSWEASSLGTVTAA [L20T]" reported_value=3.87
entry_sequence="EQIAERKRKMVSWEWSSLGLVTAA [A15W]" reported_value=1.84
entry_sequence="EQDAERKRKMVSWEASSLGLVTAA [I3D]" reported_value=4.19
entry_sequence="EQIAERKRCMVSWEASSLGLVTAA [K9C]" reported_value=1.53

List the reported protein stability index of each variant below.
1. EQIAERKRKMVSWEASSLGKVTAA [L20K]
2. EQIAERKRKMWSWEASSLGLVTAA [V11W]
3. EQIAERKRKMVSWEAPSLGLVTAA [S16P]
4. EQIAERKRKMHSWEASSLGLVTAA [V11H]
5. EQIAERKRKMVSWEASSLGLWTAA [V21W]
6. EQIAERKRKMVPWEASSLGLVTAA [S12P]
7. EQIAERKRKMVSDEASSLGLVTAA [W13D]

Data returned:
[3.9, 3.34, 3, 3.24, 2.86, 2.59, 4.67]

Hi there! I need protein stability index for each item below, if you can.
1. EQIAERKRKMVSWVASSLGLVTAA [E14V]
2. EQIAERKRKMVSWEASSKGLVTAA [L18K]

Data returned:
[1.97, 3.86]

I have 4 variants here; please give me protein stability index for each one.
1. EHIAERKRKMVSWEASSLGLVTAA [Q2H]
2. EQIAERKRKMVSWEASSLDLVTAA [G19D]
3. EQIAERKRKMVSWHASSLGLVTAA [E14H]
4. EQIAERKRKMVSWEVSSLGLVTAA [A15V]

Data returned:
1. 2.68
2. 3.32
3. 2.85
4. 2.56

Go through the items and report each one's protein stability index.
1. EQIAERKRKMVSWEASSLGLVTDA [A23D]
2. EQIAERKRKFVSWEASSLGLVTAA [M10F]
3. EQIAERKRKMVSWEASCLGLVTAA [S17C]
4. EQIAERKHKMVSWEASSLGLVTAA [R8H]
5. EQIVERKRKMVSWEASSLGLVTAA [A4V]
6. EQIAERKREMVSWEASSLGLVTAA [K9E]

Data returned:
1. 3.98
2. 2.93
3. 1.44
4. 3.64
5. 2.56
6. 3.52
